molecular target: FLuc-C-HiBiT (firefly luciferase) (Photinus pyralis, UniProt P08659, form not given/L550V); experiment: SDR assay, FLuc-C-HiBiT; conditions: + ATP; SDR max. response; clade S
Sequence (P08659 2-550 L550V, form open): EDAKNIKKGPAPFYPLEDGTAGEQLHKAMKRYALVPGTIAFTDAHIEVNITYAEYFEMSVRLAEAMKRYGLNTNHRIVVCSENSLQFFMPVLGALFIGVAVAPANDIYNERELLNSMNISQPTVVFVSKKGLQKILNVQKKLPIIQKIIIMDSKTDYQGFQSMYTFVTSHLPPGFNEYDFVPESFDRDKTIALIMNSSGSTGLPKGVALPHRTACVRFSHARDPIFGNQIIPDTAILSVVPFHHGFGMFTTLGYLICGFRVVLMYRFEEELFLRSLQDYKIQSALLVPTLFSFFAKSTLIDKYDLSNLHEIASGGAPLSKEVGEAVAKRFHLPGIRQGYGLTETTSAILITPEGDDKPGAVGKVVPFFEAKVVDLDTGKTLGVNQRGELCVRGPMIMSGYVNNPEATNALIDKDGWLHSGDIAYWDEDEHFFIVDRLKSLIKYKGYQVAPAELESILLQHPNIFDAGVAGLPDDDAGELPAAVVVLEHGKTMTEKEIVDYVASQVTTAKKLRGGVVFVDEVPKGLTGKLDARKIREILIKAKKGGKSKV
This section presents molecules with their documented % Activity (max response, + ATP) values.
Measured Metric: % Activity (max response, + ATP) (%)

[[record]]
molecule = "O=C(NCCCc1ccccc1)C1CCN(C(=O)c2ncn3c2COC(c2ccc(F)cc2)C3)CC1 (stereo not shown)"
measured_metric = "% Activity (max response, + ATP)"
units_text = "%"
readout_number = 29.00

[[record]]
molecule = "Cc1ccc(C2Cn3cnc(C(=O)N4CCC(C(=O)NC5CCCC5)CC4)c3CO2)cc1 (stereo not shown)"
measured_metric = "% Activity (max response, + ATP)"
units_text = "%"
readout_number = 73.27

[[record]]
molecule = "O=C(NCc1cccc(F)c1)C1CCN(C(=O)c2ncn3c2COC(c2ccccc2)C3)CC1 (stereo not shown)"
measured_metric = "% Activity (max response, + ATP)"
units_text = "%"
readout_number = 254.28

[[record]]
molecule = "Cc1ccc(C2Cn3cnc(C(=O)N4CCC(C(=O)NC5CCCCC5)CC4)c3CO2)cc1 (stereo not shown)"
measured_metric = "% Activity (max response, + ATP)"
units_text = "%"
readout_number = 52.31

[[record]]
molecule = "O=C(NCC1CCCO1)C1CCN(C(=O)c2ncn3c2COC(c2ccc(F)cc2)C3)CC1 (stereo not shown)"
measured_metric = "% Activity (max response, + ATP)"
units_text = "%"
readout_number = 54.34

[[record]]
molecule = "Cc1ccc(C2Cn3cnc(C(=O)N4CCC(C(=O)NCc5ccc(F)cc5F)CC4)c3CO2)cc1 (stereo not shown)"
measured_metric = "% Activity (max response, + ATP)"
units_text = "%"
readout_number = 88.58

[[record]]
molecule = "O=C(NCCc1ccccc1)C1CCN(C(=O)c2ncn3c2COC(c2ccc(Cl)cc2)C3)CC1 (stereo not shown)"
measured_metric = "% Activity (max response, + ATP)"
units_text = "%"
readout_number = 0.00

[[record]]
molecule = "O=C(NC1CCCCCC1)C1CCN(C(=O)c2ncn3c2COC(c2ccccc2)C3)CC1 (stereo not shown)"
measured_metric = "% Activity (max response, + ATP)"
units_text = "%"
readout_number = 369.53

[[record]]
molecule = "O=C(NCc1ccccc1F)C1CCN(C(=O)c2ncn3c2COC(c2ccc(F)cc2)C3)CC1 (stereo not shown)"
measured_metric = "% Activity (max response, + ATP)"
units_text = "%"
readout_number = 27.35

[[record]]
molecule = "Cc1ccc(C2Cn3cnc(C(=O)N4CCC(C(=O)NCc5cc(F)ccc5F)CC4)c3CO2)cc1 (stereo not shown)"
measured_metric = "% Activity (max response, + ATP)"
units_text = "%"
readout_number = 59.08

[[record]]
molecule = "COc1ccc(NC(=O)C2CCN(C(=O)c3ncn4c3COC(c3ccccc3)C4)CC2)cc1Cl (stereo not shown)"
measured_metric = "% Activity (max response, + ATP)"
units_text = "%"
readout_number = 241.73

[[record]]
molecule = "CC(C)NC(=O)C1CCN(C(=O)c2ncn3c2COC(c2ccccc2)C3)CC1 (stereo not shown)"
measured_metric = "% Activity (max response, + ATP)"
units_text = "%"
readout_number = 350.87

[[record]]
molecule = "COCCNC(=O)C1CCN(C(=O)c2ncn3c2COC(c2ccc(F)cc2)C3)CC1 (stereo not shown)"
measured_metric = "% Activity (max response, + ATP)"
units_text = "%"
readout_number = 67.53

[[record]]
molecule = "CCc1ccc(NC(=O)C2CCN(C(=O)c3ncn4c3COC(c3ccccc3)C4)CC2)cc1 (stereo not shown)"
measured_metric = "% Activity (max response, + ATP)"
units_text = "%"
readout_number = 288.22

[[record]]
molecule = "O=C(NC1CCCCC1)C1CCN(C(=O)c2ncn3c2COC(c2ccc(F)cc2)C3)CC1 (stereo not shown)"
measured_metric = "% Activity (max response, + ATP)"
units_text = "%"
readout_number = 42.77

[[record]]
molecule = "COc1ccc(C2Cn3cnc(C(=O)N4CCC(C(=O)NCc5ccccc5)CC4)c3CO2)cc1 (stereo not shown)"
measured_metric = "% Activity (max response, + ATP)"
units_text = "%"
readout_number = 0.00


All values here come from paper PMC12064818.
